B1: GOLPH3 (parent)
chain: FAPLLDEQYDLATKRVRQLLDLDP

# Variants of: B1
# EXPERIMENTAL_DETAILS: protein stability index of a GFP-peptide fusion (GPS, HEK-293T) (PSI 1-6); higher = more stable;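 note: lentivirally expressed fusions sorted by FACS into six bins by GFP to DsRed ratio, PSI derived from sequencing read proportions per bin multiplied by bin number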
# CONDITION_LABEL: c terminus: a fixed tail appended
Entries and their protein stability index
Respond using a number only.

• L5Y = 2.45

Ask | Give the reported protein stability index for this variant. F1G
Reply | 4.41

Ask | Give the reported protein stability index for this variant. A2F
Reply | 2.03

Reference source for all entries: the supplement of paper PMC10567573
